Hi there, I'd appreciate the recorded IC50 for every entry that follows.
Target: Full-length, GST-tagged, human CaMKIIδ (Homo sapiens, UniProt Q13557)
Construct: Full-Length, Glutathione-S-Transferase(GST)-Tagged, Human CaMKIIδ was purchased from Carna Biosciences; purchased Carna Biosciences 02-111
Sequence (Q13557 1-478 isoform Q13557-12): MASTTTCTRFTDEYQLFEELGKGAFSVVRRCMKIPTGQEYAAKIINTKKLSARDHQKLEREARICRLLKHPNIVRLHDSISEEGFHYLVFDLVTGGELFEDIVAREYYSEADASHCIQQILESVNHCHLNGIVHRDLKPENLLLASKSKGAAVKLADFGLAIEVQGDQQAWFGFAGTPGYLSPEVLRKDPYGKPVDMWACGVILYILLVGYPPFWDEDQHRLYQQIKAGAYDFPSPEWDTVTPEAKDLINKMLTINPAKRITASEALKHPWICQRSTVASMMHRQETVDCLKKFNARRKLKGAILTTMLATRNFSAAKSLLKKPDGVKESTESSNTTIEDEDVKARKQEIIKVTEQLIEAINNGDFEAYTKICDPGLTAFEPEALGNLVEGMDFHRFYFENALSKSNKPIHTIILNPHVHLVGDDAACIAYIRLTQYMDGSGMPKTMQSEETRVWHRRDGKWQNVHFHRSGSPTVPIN
Experiment: CaMKIIδ binding assay (TR-FRET with BODIPY-labeled probe ligand)
Conditions: CaMKIIδ binding assay, results of Table 2

C[C@@H](Cn1cnnn1)Oc1cc(-c2cnc(Nc3ccc4c(c3)N(C(=O)CCN(C)C)CC4)nc2)ccc1Cl [Example 437]; < 10 nM
C[C@@H](Cn1cnnn1)Oc1cc(-c2cnc(Nc3ccc4c(c3)CCN4)nc2)ccc1Cl [Example 451]; 10 to 100 nM
C[C@@H](Cn1cnnn1)Oc1cc(-c2cnc(Nc3cn(C4CCN(Cc5cccn5C)CC4)nc3C(F)(F)F)nc2)ccc1Cl [Example 566]; < 10 nM
COc1ccc(C(=O)N2CCCN(C)CC2)cc1Nc1ncc(-c2ccc(Cl)c(O[C@@H](C)Cn3cnnn3)c2)cn1 [Example 544]; < 10 nM
COc1cc2c(cc1Nc1ncc(-c3ccc(Cl)c(O[C@@H](C)Cn4cnnn4)c3)cn1)N(C(=O)CN(C)C)CC2 [Example 497]; < 10 nM

Hello, I would appreciate it if you could give IC50 for each entry below.
1. COc1cc(C2CCCNC2)ccc1Nc1ncc(-c2ccc(C#N)c(O[C@@H](C)Cn3cnnn3)c2)cn1 (stereo partly drawn) [Example 472]
2. COc1cc(N2CCC(N3CCOCC3)CC2)ccc1Nc1ncc(-c2cc(O[C@@H](C)Cn3cnnn3)c(Cl)cn2)cn1 [Example 534]
3. C[C@@H](Cn1cnnn1)Oc1cc(-c2cnc(Nc3cn(C4CCN(C5CCC(F)(F)CC5)CC4)nc3C(F)(F)F)nc2)ccc1Cl [Example 555]
4. COc1cc2c(cc1Nc1ncc(-c3ccc(C#N)c(O[C@@H](C)Cn4cnnn4)c3)cn1)C(=O)N(C1CCC1)C2 [Example 442]

1: < 10 nM; 2: ≥ 100 nM; 3: < 10 nM; 4: 10 to 100 nM

---

Kindly supply the reported pIC50 values for the records listed here.
Target: Full-length, GST-tagged, human CaMKIIδ (Homo sapiens, UniProt Q13557)
Construct: Full-Length, Glutathione-S-Transferase(GST)-Tagged, Human CaMKIIδ was purchased from Carna Biosciences; purchased Carna Biosciences 02-111
Test: CaMKIIδ binding assay (TR-FRET with BODIPY-labeled probe ligand)
Conditions: CaMKIIδ binding assay; activity class per Table 2
pIC50: −log10 of the molar value.

Example entries and their recorded answers appear below.
C[C@@H](Cn1cnnn1)Oc1cc(-c2cnc(Nc3cn(C4CC5(CNC5)C4)nc3C(F)(F)F)nc2)ccc1Cl; > 8.00
CC(=O)OC(C)(C)CN1CC2(CC(n3cc(Nc4ncc(-c5ccc(Cl)c(O[C@@H](C)Cn6cnnn6)c5)cn4)c(C(C)C)n3)C2)C1; > 8.00

Your task in this section: give pIC50 for each listed record.
1. C[C@@H](Cn1cnnn1)Oc1cc(-c2cnc(Nc3cn(CC(O)CN4CCOCC4)nc3OCC(F)(F)F)nc2)ccc1Cl (some centres unmarked)
2. C[C@@H](Cn1cnnn1)Oc1cc(-c2cnc(Nc3cn(C4CC5(C4)CN(C4COC(C)(C)OC4)C5)nc3OCC(F)(F)F)nc2)ccc1Cl
3. CC(C)c1nn(C2CC3(C2)CN(C(=O)OC(C)(C)C)C3)cc1Nc1ncc(-c2ccc(Cl)c(O[C@@H](C)Cn3cnnn3)c2)cn1

1: > 8.00; 2: > 8.00; 3: 7.00 to 8.00

The reported measurements were obtained from patent US10543212B2.
